# System: MDR1
# assay procedure: in vitro
# condition info: dog, MDCK-MDR1
assay metric: efflux ratio
One number for each entry.

Take a look at these entries with their results.
1. O=C(c1ccc2cc(Oc3cnc(C(F)(F)F)cn3)ccc2n1)N1CCNCC1    16.1
2. O=C(c1ccc2cc(Oc3ccc(C(F)(F)F)cc3)ccc2n1)N1CCNCC1    3.7
3. N#Cc1ccc(COc2ccc3nc(C(=O)N4CCNCC4)ccc3c2)cc1    23.4

Would you mind listing efflux ratio for each of the following molecules?
1. O=C(c1ccc2cc(Oc3ccc(S(=O)(=O)C(F)(F)F)cc3)ccc2n1)N1CCNCC1
2. CN1CCN(C(=O)COc2ccc3cc(Oc4ccccn4)ccc3n2)CC1
3. N#Cc1ccc(Oc2ccc3nc(OCC(=O)NCC(N)=O)ccc3c2)cc1

Ans.
1: 45.5; 2: 3.7; 3: 14.9
